biological target: BTK (Homo sapiens (Human), UniProt Q06187); assay: Btk kinase assay (HTRF); format: biochemical; settings: [ATP]=80 μM, BTK=3.4 nM; read-out: BTK Inhibition
Sequence (Q06187 whole entry, species assumed): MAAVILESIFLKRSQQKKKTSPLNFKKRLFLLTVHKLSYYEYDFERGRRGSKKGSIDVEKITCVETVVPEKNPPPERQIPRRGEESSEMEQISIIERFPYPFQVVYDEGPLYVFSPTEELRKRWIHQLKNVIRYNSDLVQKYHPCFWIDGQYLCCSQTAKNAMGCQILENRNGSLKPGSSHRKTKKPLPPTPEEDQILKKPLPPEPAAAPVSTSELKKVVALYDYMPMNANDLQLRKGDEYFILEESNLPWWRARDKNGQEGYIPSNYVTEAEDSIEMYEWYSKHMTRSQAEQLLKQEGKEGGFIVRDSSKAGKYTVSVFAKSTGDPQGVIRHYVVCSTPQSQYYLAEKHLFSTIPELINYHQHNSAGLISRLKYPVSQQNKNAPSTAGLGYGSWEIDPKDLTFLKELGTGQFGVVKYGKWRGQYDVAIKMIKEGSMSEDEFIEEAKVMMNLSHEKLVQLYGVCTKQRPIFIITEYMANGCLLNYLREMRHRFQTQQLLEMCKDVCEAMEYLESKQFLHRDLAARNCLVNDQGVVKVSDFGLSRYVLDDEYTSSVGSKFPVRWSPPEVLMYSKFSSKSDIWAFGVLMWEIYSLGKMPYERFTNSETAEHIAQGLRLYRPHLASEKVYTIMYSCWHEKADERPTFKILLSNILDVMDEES
ENDPOINT NAME: IC50

Sample records with IC50:
>>> observed_measurement("COc1cccc(Oc2ccc(-c3nn(C4CCC(C(=O)O)CC4)c4c(OC)cncc34)cc2)c1F (stereo not shown) [Compound 122]")
"< 10 nM"
>>> observed_measurement("C=CC(=O)N1CCC[C@@H](n2nc(-c3ccc(Oc4cccc(OC)c4F)cc3)c3cncc(F)c32)C1 [Compound 70]")
"< 10 nM"
>>> observed_measurement("C=CC(=O)N1CCC[C@@H](n2nc(-c3ccc(Oc4cccc(OC)c4F)cc3)c3cncc(O)c32)C1 [Compound 82]")
"< 10 nM"

Please look at the items below and tell me IC50 for each one, in order.
1. CC#CC(=O)N1CCC[C@@H](n2nc(-c3ccc(C(=O)Nc4ccccn4)cc3)c3cnccc32)C1 [Compound 105]
2. C=CC(=O)N1CC[C@@H](n2nc(-c3ccc(Oc4cccc(OC)c4F)cc3)c3cncc(C)c32)C1 [Compound 5]
3. C=CC(=O)N1CCC[C@@H](n2nc(-c3ccc(Oc4cccc(OC)c4C)cc3)c3cnccc32)C1 [Compound 57]
4. C=CC(=O)N1CC[C@@H](n2nc(-c3ccc(Oc4cccc(OC)c4F)cc3)c3cncc(Cl)c32)C1 [Compound 27]

Reply |
1: 100 to 1000 nM; 2: < 10 nM; 3: 10 to 100 nM; 4: 10 to 100 nM
